Provenance of the data: patent US4372948A

System: total cholesterol
Run Description: Anti-hyperlipemia activity, total cholesterol in blood
Type: in vivo, rabbit (Japanese white male)
Details: oral, 300 mg/kg once, 3 hrs.; negative = raising
For each record, write down the corresponding Reduction of cholesterol level after 3 hrs..
One number for each entry, in mg/dL.

Examples from the recorded data:
1) NC(=O)c1cccc(NC2O[C@H](CO)[C@@H](O[C@@H]3O[C@H](CO)[C@@H](O)[C@H](O)[C@H]3O)[C@H](O)[C@H]2O)c1 (stereo partly drawn) [Compound 2, m-aminobenzoic acid amide-N-cellobioside]; 1
2) O=C(Oc1ccccc1)c1ccc(NC2O[C@H](CO)[C@@H](O[C@@H]3O[C@H](CO)[C@@H](O)[C@H](O)[C@H]3O)[C@H](O)[C@H]2O)cc1 (stereo partly drawn) [Compound 9, phenyl p-aminobenzoate-N-cellobioside]; -1
3) C[C@@H]1OC(Nc2ccc(C(=O)OCC3CCCCC3)cc2)[C@H](O)[C@H](O)[C@H]1O (stereo partly drawn); -3

Hi team, please reply with Reduction of cholesterol level after 3 hrs. for each item in this list.
1. O=C(OCc1ccccc1)c1ccc(NC2C[C@H](O)[C@H](O)CO2)cc1 (stereo partly drawn) [Compound 13, benzyl p-aminobenzoate-N-D-deoxyriboside]
2. O=C(OCC1CCCCC1)c1ccccc1NC1O[C@H](CO)[C@@H](O[C@@H]2O[C@H](CO)[C@H](O)[C@H](O)[C@H]2O)[C@H](O)[C@H]1O (stereo partly drawn)
3. COC(=O)Cc1ccc(NC2O[C@@H](C)[C@H](O)[C@@H](O)[C@H]2O)cc1 (stereo partly drawn)

4
4
-3
